- Tested on: Plasmodium falciparum
- methodDescription: GSK_TCMDC: Inhibition of Plasmodium falciparum Dd2 in whole red blood cells, using parasite LDH activity as an index of growth. Test compounds present at 2uM
- Type: functional
measuredParameter: Inhibition

The examples below pair each entry with its known result.
| compound | studySystem | measuredParameter | reportedValue |
| --- | --- | --- | --- |
| COc1cccc([C@@H](CC(=O)Nc2cc(C(F)(F)F)ccc2OC)Nc2ccc(C#N)c3ccccc23)c1 | Plasmodium falciparum | Inhibition | 53% |
| Cc1ccc(C(CC(=O)Nc2nccs2)c2ccc(OC(C)C)cc2)cc1 (stereo not drawn) | Plasmodium falciparum | Inhibition | 90% |

Shifting focus to the compound that follows.
Notebook: COc1cc(N)c(Cl)cc1C(=O)NC1CCC(NCC2CCCCC2)CC1.Cl (stereo not drawn) , Inhibition read as 85%
